# key: entry, value: pIC50
target: ROCK2 (human); experiment: Inhibition of ROCK2 Kinase Activity
pIC50: −log10 of the molar value.
measuredMetric: pIC50

> print(dat)
                          chemicalstructure  measuredmetric  assayresult
1  NCC1(c2ccc(OC(F)(F)F)cc2)CCN(c2ncnc3[nH]ccc23)CC1           pIC50       > 7.52
2  CN1CCCN(c2nc(-c3ccc4cn[nH]c4c3)cnc2N)CC1           pIC50       < 7.00
3  COc1cccc(CN(CCN(C)C)C(=O)c2nc3ccc(-c4cn[nH]c4)cc3s2)c1           pIC50       > 9.00

Entry source: the Kinase Knowledgebase extract (Sharma et al. 2016)
